Listed here: items and their measured Muscle.
tested on: LNCaP tumor-transplanted mouse; assay: Internal radioactivity distribution using LNCaP tumor-transplanted mouse; format: in vivo; details: 24 h after administration
Provide the reading as a plain figure in % ID/g.

Example entries and their recorded answers appear below.
compound="O=C([O-])CN(CCN(CCc1ccc(NC(=O)[C@H](CCCCNC(=O)CCC(=O)NCCCC[C@H](NC(=O)N[C@@H](CCC(=O)O)C(=O)O)C(=O)O)NC(=O)CCCc2ccc(I)cc2)cc1)CCN(CC(=O)[O-])Cc1cccc(C(=O)[O-])n1)Cc1cccc(C(=O)[O-])n1.[111In+3] [[^111In]In-Neunpa-2]" reported_property=Muscle value_measured=0.27
compound="O=C([O-])CN1CCN(C(CCC(=O)NCCCC[C@H](NC(=O)N[C@@H](CCC(=O)O)C(=O)O)C(=O)O)C(=O)[O-])CCN(CC(=O)[O-])CCN(C(CCC(=O)Nc2ccccc2)C(=O)[O-])CC1.[111In+3] (stereo partly drawn) [[^111In]In-PSMA-DB, reference compound]" reported_property=Muscle value_measured=0.21
compound="O=C([O-])CN1CCN(C(CCC(=O)NCCCC[C@H](NC(=O)N[C@@H](CCC(=O)O)C(=O)O)C(=O)O)C(=O)[O-])CCN(CC(=O)[O-])CCN(C(CCC(=O)N[C@@H](CCCCNC(=O)CCCc2ccc(I)cc2)C(=O)O)C(=O)[O-])CC1.[111In+3] (stereo partly drawn) [[^111In]In-PSMA-DA1]" reported_property=Muscle value_measured=1.38
compound="O=C([O-])CN(Cc1cccc(C(=O)[O-])n1)C[C@H](Cc1ccc(NC(=O)CCCCCNC(=O)CCC(=O)NCCCC[C@H](NC(=O)N[C@@H](CCC(=O)O)C(=O)O)C(=O)O)cc1)N(CC(=O)[O-])Cc1cccc(C(=O)[O-])n1.[111In+3] [[^111In]In-Octapa-1, reference compound]" reported_property=Muscle value_measured=0.01
compound="O=C([O-])CN1CCN(C(CCC(=O)NCCC(=O)N2Cc3ccccc3-c3c(nnn3CCOCCOCCOCCOCCC(=O)NCCCC[C@H](NC(=O)N[C@@H](CCC(=O)O)C(=O)O)C(=O)O)-c3ccccc32)C(=O)[O-])CCN(CC(=O)[O-])CCN(C(CCC(=O)N[C@@H](CCCCNC(=O)CCCc2ccc(I)cc2)C(=O)O)C(=O)[O-])CC1.[111In+3] (stereo partly drawn) [[^111In]In-PtDA]" reported_property=Muscle value_measured=1.28

### Prompt Give Muscle for O=C([O-])CN(Cc1cccc(C(=O)[O-])n1)C[C@H](Cc1ccc(NC(=O)[C@H](CCCCNC(=O)CCC(=O)NCCCC[C@H](NC(=O)N[C@@H](CCC(=O)O)C(=O)O)C(=O)O)NC(=O)COCCOCCOCC(=O)N[C@@H](CCCCNC(=O)CCCc2ccc(I)cc2)C(=O)O)cc1)N(CC(=O)[O-])Cc1cccc(C(=O)[O-])n1.[111In+3] [[^111In]In-Octapa-3] tested on LNCaP tumor-transplanted mouse.
### Response 0.61

### Prompt Give Muscle for O=C(O)CC[C@H](NC(=O)N[C@@H](CCCCNC(=O)[C@H](Cc1ccc2ccccc2c1)NC(=O)[C@H]1CC[C@H](CNC(=O)CCC(C(=O)O)N2CCN(CC(=O)O)CCN(C(CCC(=O)N[C@@H](CCCCNC(=O)CCCc3ccc(I)cc3)C(=O)O)C(=O)O)CCN(CC(=O)O)CC2)CC1)C(=O)O)C(=O)O (stereo partly drawn) [[^111In]In-PSMA-NAT-DA1, metal not drawn] tested on LNCaP tumor-transplanted mouse.
### Response 1.23

### Prompt Give Muscle for O=C([O-])CN(Cc1cccc(C(=O)[O-])n1)C[C@H](Cc1ccc(NC(=O)[C@H](CCCCNC(=O)CCC(=O)NCCCC[C@H](NC(=O)N[C@@H](CCC(=O)O)C(=O)O)C(=O)O)NC(=O)CCCc2ccc(I)cc2)cc1)N(CC(=O)[O-])Cc1cccc(C(=O)[O-])n1.[111In+3] [[^111In]In-Octapa-2] tested on LNCaP tumor-transplanted mouse.
### Response 0.07
